- measured.on: T1, His-tagged human TIGIT (human, UniProt Q495A1 22-141)
- T1 construct: SPR analyte; also called human TIGIT protein; not shown: His tag
- T1 sequence: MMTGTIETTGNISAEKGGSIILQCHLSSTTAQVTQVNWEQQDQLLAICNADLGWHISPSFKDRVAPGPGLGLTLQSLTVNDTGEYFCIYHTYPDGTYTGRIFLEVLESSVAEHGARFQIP
- assay.details: SPR experiment 1, IgG from HEK293 supernatant captured
observed.property: kon (M⁻¹ s⁻¹)
Give the value in M⁻¹ s⁻¹ but do not write M⁻¹ s⁻¹ after it.

Qu. Reported kon, binder humanized TIGIT-6 antibody 6VH6.M4 + 6VL1 (antibody, V domains shown, Full-length IgG, tested as HEK293 supernatant) VH: QVQLVQSGAEVKKPGASVKVSCKASGYTITENTMHWVRQAPGQRLEWIGGINPNQGGTSYSQKFQGRATLTVDTSASTAYMELSSLRSEDTAVYYCTRSSYYRYDLDYWGQGTTVTVSS VL: DIQMTQSPSSLSASVGDRVTITCKASQDVKTALAWYQQKPGKAPKLLIYSASYRYTGVPSRFSGSGSGTDFTFTISSLQPEDIATYYCHQHYTTPWTFGGGTKLEIK : ____
Ans. 230000
